Test system BCL-2 (binding to BAK peptide) (Homo sapiens, UniProt P10415), IC50 listed for each of the molecules.

CCCCN(CCCC)C(=O)c1cc(C)n(-c2ccc(NC(=O)Cc3cc(F)ccc3OC)cc2C(=O)N2Cc3ccccc3C[C@H]2CO)n1 [Example 70]
133 to 134 nM
CCCCN(CCCC)C(=O)c1cc(C)n(-c2ccc(NC(=O)[C@@H]3COc4ccccc4O3)cc2C(=O)N2Cc3ccccc3C[C@H]2CO)n1 [Example 65]
137 to 140 nM

Here's the next entry for you.
Incoming: What value of IC50 has been recorded for this entry: CCCCN(CCCC)C(=O)c1cc(C)n(-c2ccc(NC(=O)[C@@H](C)c3ccccc3)cc2C(=O)N2Cc3ccccc3C[C@H]2CO)n1 [Example 52]
Outgoing: 75.5 to 79.1 nM
